Origin of measurements: the supplement of paper PMC7877785

PROTOCOL: self-splicing fitness, log relative to wild type (ln ratio); higher = more splicing; Tetrahymena group I intron in knt gene, E. coli kanamycin selection, DiMSum; sequences stand for … in CUCUCU…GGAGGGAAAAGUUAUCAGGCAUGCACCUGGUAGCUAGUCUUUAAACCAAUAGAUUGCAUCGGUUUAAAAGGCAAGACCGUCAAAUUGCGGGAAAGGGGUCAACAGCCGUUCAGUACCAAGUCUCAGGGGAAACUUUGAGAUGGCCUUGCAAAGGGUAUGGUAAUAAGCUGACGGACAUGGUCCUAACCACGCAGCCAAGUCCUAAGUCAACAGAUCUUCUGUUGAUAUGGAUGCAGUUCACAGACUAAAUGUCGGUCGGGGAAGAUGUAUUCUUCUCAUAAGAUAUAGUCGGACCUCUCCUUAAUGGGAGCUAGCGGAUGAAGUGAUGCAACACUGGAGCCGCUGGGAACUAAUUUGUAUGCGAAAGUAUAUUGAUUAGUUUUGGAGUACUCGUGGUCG;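 note: selection with 25 µg/mL kanamycin versus none on LB agar overnight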
CONDITION: 30 °C
Assign class by self-splicing fitness (ln): not lower than -3 means YES; lower than -3 means NO.

| SEQUENCE_CONTENT | LABEL_CLASS |
| --- | --- |
| AAUGAGCAAUAUUACGCGGG | NO |
| GAGAAGCAAUAUUACGCACC | YES |
| CUGAAGCAAUAUUACGAAGU | NO |

Please indicate if the recorded self-splicing fitness (ln) for `AAUCAGCAAUAUUACGACGC` meets or exceeds -3. YES

For `AAUUAGCAAUAUUACGGCGC` then? YES

For `GUACAGCAAUAUUACGUAUG` then? YES

For `GAAGAGCAAUAUUACGAGUG` then? NO

For `GUCAAGCAAUAUUACGUGGA` then? YES

For `CCGCAGCAAUAUUACGCUAC` then? NO
